- Target Of Assay: T1, mPD1 (soluble, ELISA of Examples 20 and 24) (mouse, UniProt Q02242 25-167, limits assumed)
- T1 construct: also called Biotin-mPD1
- T1 sequence (looked up): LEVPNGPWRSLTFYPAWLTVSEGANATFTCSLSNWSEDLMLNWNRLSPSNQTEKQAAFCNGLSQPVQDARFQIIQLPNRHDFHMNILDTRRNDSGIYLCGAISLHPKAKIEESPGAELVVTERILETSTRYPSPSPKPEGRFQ
- Test Name: blocking ELISA, mPD1 to mPDL1
pIC50: −log10 of the molar value.
// pIC50 lookup, one value per entry
Readout Type: pIC50

>>> measured("R3A9 (antibody, V domains shown, also called 7115A; mPD1 parental (R3A9)) VH: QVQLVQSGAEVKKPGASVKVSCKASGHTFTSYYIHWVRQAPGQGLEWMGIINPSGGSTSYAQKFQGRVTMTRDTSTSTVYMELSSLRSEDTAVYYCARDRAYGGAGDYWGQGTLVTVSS VL: DIQMTQSPSSLSASVGDRVTITCRASQSVGTWLAWYQQKPGKAPKLLIYSASTLQSGVPSRFSGSGSGTDFTLTISSLQPEDFATYYCQQSYSAPLTFGGGTKVEIK")
9.14
>>> measured("m2A1 (antibody, V domains shown, R3A9 derivative; also called m2AM (apparent misprint)) VH: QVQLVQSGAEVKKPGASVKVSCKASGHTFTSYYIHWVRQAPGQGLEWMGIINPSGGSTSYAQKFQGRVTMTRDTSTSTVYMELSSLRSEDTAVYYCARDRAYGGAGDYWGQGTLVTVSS VL: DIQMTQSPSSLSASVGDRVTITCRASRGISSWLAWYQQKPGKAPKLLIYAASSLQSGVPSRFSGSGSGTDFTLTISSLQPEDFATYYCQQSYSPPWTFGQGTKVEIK")
9.35
>>> measured("m2C1 (antibody, V domains shown, R3A9 derivative; also called m3CM (apparent misprint)) VH: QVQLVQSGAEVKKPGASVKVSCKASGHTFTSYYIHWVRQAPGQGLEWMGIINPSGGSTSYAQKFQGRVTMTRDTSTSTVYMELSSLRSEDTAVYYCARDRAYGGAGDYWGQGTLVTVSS VL: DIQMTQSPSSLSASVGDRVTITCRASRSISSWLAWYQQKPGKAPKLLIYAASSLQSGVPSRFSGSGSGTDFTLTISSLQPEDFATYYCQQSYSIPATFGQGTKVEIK")
9.33
>>> measured("m4D1 (antibody, V domains shown, R3A9 derivative) VH: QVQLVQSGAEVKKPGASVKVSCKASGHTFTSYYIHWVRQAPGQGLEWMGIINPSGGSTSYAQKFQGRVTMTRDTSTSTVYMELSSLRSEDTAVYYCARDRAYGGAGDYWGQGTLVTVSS VL: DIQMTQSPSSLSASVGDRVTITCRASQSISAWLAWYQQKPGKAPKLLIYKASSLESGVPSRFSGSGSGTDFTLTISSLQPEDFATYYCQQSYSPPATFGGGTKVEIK")
9.05
>>> measured("m3A7 (antibody, V domains shown, R3A9 derivative; also called 7115C) VH: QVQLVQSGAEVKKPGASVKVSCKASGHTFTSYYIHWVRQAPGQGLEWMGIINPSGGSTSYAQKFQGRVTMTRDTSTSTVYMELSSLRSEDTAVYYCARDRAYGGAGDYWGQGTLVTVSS VL: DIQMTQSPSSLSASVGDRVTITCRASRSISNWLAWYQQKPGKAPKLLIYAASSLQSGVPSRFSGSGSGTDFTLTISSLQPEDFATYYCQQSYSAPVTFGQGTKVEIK")
9.27

Provenance of the data: patent US20230416363A1
